// data source = PubChem BioAssay AID1159580

# test_details: chemical genetic growth profiling, strain panel (AID 1159580);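 note: tested at 20 µM; growth read once vehicle control cultures reached saturation at 30 °C; 1 = growth at the plate median or of vehicle wells; lower values mean less growth of the strain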
# condition_details: S. cerevisiae deletion strains, growth OD, locus YOR265W, strain rbl2
Among all 5,500 compounds or so, about 2,000 (36%) were called active. Another 18% or so got no clear call; they are omitted. Cut-off read from the data, not from the text of the source: active = normalized growth mostly below about 0.91 (no sharp cut-off); inconclusive = no clear call, values can overlap the other calls; inactive = mostly above about 0.92. Some of the results follow.
Answer with one of the outcomes given here: active, inactive

Name the outcome recorded for CC(C)=CCC[C@](C)(O)C1CC=C(C)CC1 (stereo not given in full) in the assay.
inactive

Name the outcome recorded for CO[C@H]1/C=C/O[C@@]2(C)Oc3c(C)c(O)c4c(O)c(c5c(nc6cc(C)ccn65)c4c3C2=O)NC(=O)/C(C)=C\C=C\[C@H](C)[C@H](O)[C@@H](C)C(O)[C@@H](C)[C@H](OC(C)=O)[C@@H]1C (stereo not given in full) in the assay.
inactive

Name the outcome recorded for `O=C(O)c1ccccc1Nc1cccc(C(F)(F)F)c1` in the assay.
active

Name the outcome recorded for `Nc1ccc([As](=O)(O)O)cc1` in the assay.
inactive

----------
# test_details: chemical genetic growth profiling, strain panel (AID 1159580);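 note: tested at 20 µM; growth read once vehicle control cultures reached saturation at 30 °C; 1 = growth at the plate median or of vehicle wells; lower values mean less growth of the strain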
# condition_details: S. cerevisiae deletion strains, growth OD, locus YER167W, strain BCK2, hits give low values
The campaign covered roughly 5,500 compounds. About 2,000 (36%) were called active. Another 18% or so got no clear call; they are omitted. Some of the results follow.
readout_kind: normalized growth
Numbers only.

[[record]]
compound = "NCCCC[C@H](N[C@@H](CCc1ccccc1)C(=O)O)C(=O)N1CCC[C@H]1C(=O)O"
measured = 0.989


Batch: normalized growth for all items listed.
1. CN(C)CCOC(C)(c1ccccc1)c1ccccn1 (stereo not given)
2. c1ccc2c(c1)cc1ccc3cccc4ccc2c1c34
3. Cc1ccc2cc3c(ccc4ccccc43)c3c2c1CC3
4. CC/C(=C(\c1ccccc1)c1ccc(OCCN(C)C)cc1)c1ccccc1

0.986
1.03
0.917
0.05

----------
# test_details: chemical genetic growth profiling, strain panel (AID 1159580);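 note: tested at 20 µM; growth read once vehicle control cultures reached saturation at 30 °C; 1 = growth at the plate median or of vehicle wells; lower values mean less growth of the strain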
# condition_details: S. cerevisiae deletion strains, growth OD, locus YOL012C, strain htz1
The campaign covered roughly 5,500 compounds. About 2,000 (36%) were called active. Inconclusive results (about 18%) are left out. The list shows a part of the results.
Output t for records whose normalized growth is lower than 1, f for records at or above 1.

[[record]]
compound = "CO[C@H]1/C=C/O[C@@]2(C)Oc3c(C)c(O)c4c(O)c(c(/C=N/N5CCN(C)CC5)c(O)c4c3C2=O)NC(=O)/C(C)=C\\C=C\\C(C)[C@H](O)[C@@H](C)[C@@H](O)[C@@H](C)[C@@H](OC(C)=O)[C@@H]1C (stereo partly specified)"
qualitative_label = "f"

[[record]]
compound = "CNc1ccccc1C(=O)O"
qualitative_label = "f"


# TODO verify normalized growth < 1 strictly for this compound: `O=C(O)c1cccnc1Nc1cccc(C(F)(F)F)c1`
f

# TODO verify normalized growth < 1 strictly for this compound: `O=C(O)/C=C/C=C/c1ccccc1`
f

# TODO verify normalized growth < 1 strictly for this compound: `CC(C)(C)NC[C@@H](O)COc1nsnc1N1CCOCC1`
t

----------
# test_details: chemical genetic growth profiling, strain panel (AID 1159580);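 note: tested at 20 µM; growth read once vehicle control cultures reached saturation at 30 °C; 1 = growth at the plate median or of vehicle wells; lower values mean less growth of the strain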
# condition_details: S. cerevisiae deletion strains, growth OD, strain NNK1, hits give low values
Among all 5,500 compounds or so, about 2,000 (36%) were called active. Roughly 18% stayed inconclusive and do not appear here. Some of the results follow.
Give measured normalized growth for each item. Keep answers brief.
One number for each entry.

[[record]]
item_smiles = "CCCc1c(C(=O)NNc2cccc(Cl)c2)cnn1-c1ccccc1"
readout_kind = "normalized growth"
measured = 0.971


Batch: normalized growth for all items listed.
1. FC(F)(F)c1cccc(NC(=S)Nc2csc(C(F)(F)F)c2-c2ccccc2)c1
2. FC(F)(F)c1cccc(NNC(=S)Nc2ccccc2)c1
3. Cc1cc(Cl)ccc1NC(=S)NNC(=S)Nc1ccc(F)cc1
4. O=C(c1ccccc1)c1cc(Cl)ccc1NC(=S)Nc1ccc(F)cc1

0.991
0.995
0.96
0.995

Batch: normalized growth for all items listed.
1. CC(=O)Nc1ccc([N+](=O)[O-])cc1[N+](=O)[O-]
2. CCCc1c(C(=O)Sc2ccccn2)cnn1-c1ccc(Cl)cc1
3. Fc1cccc(F)c1NC(=S)Nc1cc(C(F)(F)F)cc(C(F)(F)F)c1
4. O=C(NC(=S)Nc1cccc(C(F)(F)F)c1)c1ccc2nonc2c1
5. COC(=O)C1=C(C)NC(C)=C(C(=O)OC)C1c1ccc(Cl)cc1Cl
6. N#CCC(=O)NNC(=S)Nc1ccc(Cl)c(Cl)c1

1: 0.931; 2: 0.961; 3: 0.974; 4: 0.954; 5: 0.977; 6: 0.988
